# Test system: NCI-H460 lung
Outcomes: TRUE (active), FALSE (inactive)

- compound: "Cc1cc(Nc2cc(N3CCN(C)CC3)nc(Sc3ccc(NC(=O)C4CC4)cc3)n2)n[nH]1"
  target_under_test: "NCI-H460 lung"
  class_label: "FALSE"
- compound: "Cc1cn(-c2ccc(S(C)(=O)=O)cc2)c(-c2ccc(Cl)cc2)n1"
  target_under_test: "NCI-H460 lung"
  class_label: "FALSE"
- compound: "O=c1oc2ccc(-c3ccc(F)cc3F)cc2c(=O)n1-c1ccc(Cl)c(C(F)(F)F)c1"
  target_under_test: "NCI-H460 lung"
  class_label: "FALSE"
- compound: "CCOC(=O)c1cnn2c3ccccc3n(S(=O)(=O)c3ccc(OC)cc3)c12"
  target_under_test: "NCI-H460 lung"
  class_label: "FALSE"
- compound: "N#CN1CC[C@H](C(=O)Nc2cc3cc(C(N)=O)ccc3cn2)C1"
  target_under_test: "NCI-H460 lung"
  class_label: "TRUE"
- compound: "CC(=O)c1cc(C(=O)c2ccc3c(c2)Sc2ccccc2N3)c2c(C)cccn12"
  target_under_test: "NCI-H460 lung"
  class_label: "TRUE"
- compound: "COc1cc(C2C3=C(COC3=O)N(CCO)c3cc4c(cc32)OCO4)cc(OC)c1O (stereo not given)"
  target_under_test: "NCI-H460 lung"
  class_label: "FALSE"
- compound: "CC1=C(C)C2(O)C(=C(C)C1=O)/C(=C(/O)c1ccccc1)c1nc3ccccc3n12 (stereo not given)"
  target_under_test: "NCI-H460 lung"
  class_label: "FALSE"
- compound: "COc1ccc(Nc2nc3cc(N)cc(N)c3nc2-c2ccccc2)cc1OC"
  target_under_test: "NCI-H460 lung"
  class_label: "FALSE"
- compound: "COc1ccc(C2C=C(c3ccc(Cl)cc3)N=C3SC=C(C)N32)c(Br)c1 (stereo not given)"
  target_under_test: "NCI-H460 lung"
  class_label: "FALSE"
